The origin of these recorded values is ChEMBL document CHEMBL3988442.

Molecular target: AMP-activated protein kinase, AMPK (Homo sapiens) (UniProt P54646+O43741+P54619+Q9UGJ0+Q9Y478+Q13131+Q9UGI9)
Assay: AMP-dependent Kinase enzyme assay. An in vitro enzyme assay that detects ADP turnover that is directly proportional to AMPK activity. This uses naive AMPK that is activated during the assay with MK-8722
Assay type: functional
Parameters: scale not given: direction of the effect not stated beside the values
Conditions: 30 µM
assay-endpoint: Percent Effect
Form field: result (number plus unit)

Worked examples, 3 compounds total:
CC(C)(C)NC(=O)CNc1ncc(Br)cn1 = 7.93%
Cc1c(NC(=O)c2cnc[nH]2)cccc1C(=O)NC(C)(C)C = 15%
CN(C)c1cc(CNC(=O)C2COc3ccccc3O2)ccn1 (stereo not given) = 0.412%

Now consider a different compound.
Query string: Name the recorded Percent Effect for `Cn1cc(CN(C(=O)c2ccc(O)c(Cl)c2)C2CC2)cn1` .
Result string: 10.3%

* * *

Property: Percent Effect; scope: individual molecules
Target: AMP-activated protein kinase, AMPK (Homo sapiens) (UniProt P54646+O43741+P54619+Q9UGJ0+Q9Y478+Q13131+Q9UGI9)
Test: AMP-dependent Kinase enzyme assay. An in vitro enzyme assay that detects ADP turnover that is directly proportional to AMPK activity. This uses naive AMPK that is activated during the assay with MK-8722
Format: functional
Set-up: scale not given: direction of the effect not stated beside the values
Settings: 30 µM
# output: bare number, implied unit %

Example cases with answers are listed next.
CS(=O)(=O)NCCN1CCSCC1c1ccc(Cl)cc1 (centres undefined) = 1.33
COc1ccsc1C(=O)NC1CCN(c2ccc(C#N)cc2)CC1 = 13.5
O=C(c1coc(-c2ccccc2)n1)N1CCS(=O)(=O)CC1 = 0.626
CC(C)(CN1CCC2(CCOCC2)CC1)N1CCOCC1 = -0.161
CC(C)Cc1cc(CNC(=O)c2ccccc2C2CCNC2)no1 (centres undefined) = 3.3
O=C(c1cccnc1)N1CCC(Oc2cccc(C(F)(F)F)c2)CC1 = -1.51
CCCN(CCc1ccccn1)C(=O)CCc1cnn(C)c1 = 4.13
CC(OCC1CC1)C(=O)Nc1nccn1Cc1ccccc1 (centres undefined) = 5.4

Let's switch to this molecule now.
Query string: Could you tell me which Percent Effect is on file for Cc1cc(CC(=O)NC2CCCN(Cc3ccccc3)C2=O)n[nH]1 (centres undefined) ?
Result string: 9.56

* * *

Listed next: entries and their corresponding Percent Effect.
Molecular target: Proteasome subunit beta (Trypanosoma cruzi) (UniProt O96673)
Sequence (O96673 as listed by the source): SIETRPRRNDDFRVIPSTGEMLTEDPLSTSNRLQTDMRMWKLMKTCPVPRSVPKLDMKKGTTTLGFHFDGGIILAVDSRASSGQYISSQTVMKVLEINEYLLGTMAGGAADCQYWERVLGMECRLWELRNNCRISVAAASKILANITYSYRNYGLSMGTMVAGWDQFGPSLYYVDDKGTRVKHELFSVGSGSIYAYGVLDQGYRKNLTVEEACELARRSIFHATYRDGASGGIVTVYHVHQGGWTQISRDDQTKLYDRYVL
Test: Trypanosoma cruzi proteasome chymotrypsin-like activity (TcProtChymo) assay. Further: in the data most compounds retested in dose-response had high values.
Format: functional
Design: scale not given: direction of the effect not stated beside the values
Conditions: 9.37 µM
Kindly report the value followed by its unit.

Query string: Entry under review: O=C(c1ccccn1)N1Cc2nccn2CC(CN2CCOCC2)C1 (stereo unspecified) . Reported Percent Effect?
Result string: 8.56%

Query string: Can you share its Percent Effect? I mean this molecule: `CC[C@@H]1N(Cc2ccsc2)CCC[C@]12CCC(=O)N2CCOC`
Result string: 10.9%

Query string: What measured Percent Effect goes with `O=C(CC1CCCC1)N1C[C@@H]2CCN(c3cccnc3)C[C@@H]2C1` ?
Result string: 19.3%

Query string: Entry COc1cccc(CN2CCCC3(CCN(C(=O)[C@H]4CCCO4)C3)C2)c1 (stereo partly specified) : reported Percent Effect = ?
Result string: 4.55%

Query string: # Percent Effect lookup, item `CN(CC1CCCCC1)C(=O)c1ccc(-n2ncc(C#N)c2N)cc1`
Result string: 7.37%

Query string: Return reported Percent Effect; argument: Cc1cnn(CC2CCCN2C(=O)c2ccc(C(N)=O)cn2)c1 (stereo unspecified)
Result string: 9.47%

Query string: Please report the recorded Percent Effect for `CN(C)c1ccc(NC(=O)NCc2ccccn2)cn1` .
Result string: 11.9%

Query string: // returns reported Percent Effect for input `CCNC(=O)[C@@H]1C[C@H](NC(=O)Cc2ccsc2)CN1Cc1ccc(C)o1`
Result string: 20.9%

Query string: Given the entry `O=C(CN1CCCS1(=O)=O)NCCOc1ccc2c(c1)CCC2` , report its measured Percent Effect.
Result string: -10.2%

Query string: Report Percent Effect for `COc1ccc(CN2CCC[C@@H]3CN(C(=O)c4ccco4)C[C@@H]32)cc1` please.
Result string: 17.6%

Query string: Which Percent Effect is reported for this molecule? `O=C1COC2(CCN(C(=O)c3ccco3)CC2)CN1Cc1cccnc1`
Result string: 3.86%

* * *

Target: Sialic acid-binding Ig-like lectin 9 (Homo sapiens)
Assay: Hs-Siglec9 ALPHAscreen SOP 20170721
Parameters: scale not given: direction of the effect not stated beside the values
Details: 10 µM
Documented Percent Effect across a set of molecules
Give a bare numeral; the unit % is implied.

Below: 5 molecules and their reported Percent Effect.
Cc1cncc(C2CCCN(C(=O)c3c[nH]c(=O)[nH]c3=O)C2)n1 (centres undefined) = -0.809
NC[C@H]1CC[C@H](C(NC(=O)c2ccccc2)c2ccccn2)CC1 (some centres undefined) = -7.17
Cn1cc(C(=O)N2CCC(Cc3nccs3)CC2)cn1 = -7.82
Cn1c(CN2CCCC2c2noc(C3CC3)n2)cc(=O)n(C)c1=O (centres undefined) = -1.87
CN(C)CC1CN(Cc2nnc(-c3ccccc3Cl)o2)CCO1 (centres undefined) = -7.04

Kindly review the next molecule as well.
Query string: Look up Percent Effect for this molecule: O=C(NCc1cc[nH]n1)NCC(O)c1ccc(F)cc1F (centres undefined)
Result string: -0.795

* * *

Species on record: Homo sapiens
Assay: To identify inhibition of the IFN signalling (Jak-Stat) pathway via expression of an eGFP reporter gene under the control of an IFN-stimulated response element (ISRE) containing MxA promoter.
Assay type: functional
Design: scale not given: direction of the effect not stated beside the values
Settings: 30 µM
Consider the cut-off 10%. If the recorded Percent Effect is strictly smaller, the label is t; if not, the label is f.

COC1CCCN(Cc2nc(Cc3ccccc3F)no2)C1 (centres undefined) = t
Cc1cc(OCC(=O)N2CCCC(c3ccn[nH]3)C2)no1 (centres undefined) = t
Cc1ncnc(NCc2cc3n(n2)CCCN(S(C)(=O)=O)C3)c1C = t
CCOC1COC2(CCN(S(=O)(=O)c3cccc(F)c3)CC2)C1 (centres undefined) = t
CS(=O)(=O)NCC1CCCN(C(=O)COCc2ccccc2)C1 (centres undefined) = f

Query string: Could you please tell me whether Percent Effect recorded for `Fc1ccc(CN2CCC(c3n[nH]c4ncccc34)CC2)cc1F` is less than 10%?
Result string: f

* * *

Target: Chromo domain-containing protein 1 (Saccharomyces cerevisiae (strain ATCC 204508 / S288c) (Baker's yeast)) (UniProt P32657)
Sequence (P32657 whole entry, the tested form may be a part): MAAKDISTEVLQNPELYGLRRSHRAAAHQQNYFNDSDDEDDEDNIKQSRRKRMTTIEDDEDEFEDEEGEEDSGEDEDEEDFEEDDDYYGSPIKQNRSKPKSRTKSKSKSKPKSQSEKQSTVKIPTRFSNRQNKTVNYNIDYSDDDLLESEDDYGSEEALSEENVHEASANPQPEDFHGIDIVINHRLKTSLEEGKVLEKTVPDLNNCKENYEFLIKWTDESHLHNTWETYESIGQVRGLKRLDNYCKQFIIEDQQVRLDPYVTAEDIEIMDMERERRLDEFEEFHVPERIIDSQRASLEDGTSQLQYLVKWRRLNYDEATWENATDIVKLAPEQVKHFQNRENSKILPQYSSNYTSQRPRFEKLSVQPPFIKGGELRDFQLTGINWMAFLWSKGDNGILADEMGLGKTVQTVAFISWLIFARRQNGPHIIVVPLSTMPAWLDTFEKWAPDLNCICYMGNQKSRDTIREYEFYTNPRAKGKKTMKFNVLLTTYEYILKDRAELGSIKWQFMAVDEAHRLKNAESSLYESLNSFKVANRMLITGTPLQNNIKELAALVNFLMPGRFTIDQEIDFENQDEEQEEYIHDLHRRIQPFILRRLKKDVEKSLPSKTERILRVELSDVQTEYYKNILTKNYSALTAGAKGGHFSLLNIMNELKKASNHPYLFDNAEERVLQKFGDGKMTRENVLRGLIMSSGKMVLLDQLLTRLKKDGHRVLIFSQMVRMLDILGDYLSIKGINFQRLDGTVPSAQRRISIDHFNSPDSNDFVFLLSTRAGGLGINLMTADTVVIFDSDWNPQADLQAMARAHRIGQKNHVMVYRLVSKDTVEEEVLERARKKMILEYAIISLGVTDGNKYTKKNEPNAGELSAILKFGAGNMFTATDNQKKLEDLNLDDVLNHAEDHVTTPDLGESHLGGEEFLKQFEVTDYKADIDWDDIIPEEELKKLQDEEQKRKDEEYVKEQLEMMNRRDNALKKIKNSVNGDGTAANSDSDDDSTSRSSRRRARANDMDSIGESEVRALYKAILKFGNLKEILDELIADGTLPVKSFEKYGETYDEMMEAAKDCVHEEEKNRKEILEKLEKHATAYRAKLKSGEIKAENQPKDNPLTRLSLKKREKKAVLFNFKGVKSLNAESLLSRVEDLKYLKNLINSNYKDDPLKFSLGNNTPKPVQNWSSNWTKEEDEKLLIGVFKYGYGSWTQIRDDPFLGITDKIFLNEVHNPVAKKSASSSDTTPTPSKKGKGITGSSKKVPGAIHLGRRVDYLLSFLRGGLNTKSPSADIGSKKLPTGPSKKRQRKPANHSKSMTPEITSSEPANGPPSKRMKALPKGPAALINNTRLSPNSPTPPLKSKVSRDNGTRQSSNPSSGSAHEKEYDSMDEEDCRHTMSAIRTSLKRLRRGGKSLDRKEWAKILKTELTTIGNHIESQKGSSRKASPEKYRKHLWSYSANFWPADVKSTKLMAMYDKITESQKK
Assay: ScCHD-1 Enzyme Inhibition Assay; further: in the data most compounds retested in dose-response had high values
Type: functional
Set-up: scale not given: direction of the effect not stated beside the values
Conditions: 30 µM
assay-endpoint: Percent Effect (%)
Answer in %, number only, no unit symbol.

CCCN1CCCn2nc(CNS(=O)(=O)c3cccc(C#N)c3)cc2C1 = 95
CCNC(=O)[C@@H]1C[C@@H](NC(=O)Cc2ccncc2)CN1Cc1ccsc1 = 5.29
CCOC1COC2(CCN(S(=O)(=O)c3cccc(F)c3)CC2)C1 (stereo unspecified) = -3.54

Query string: Entry `CCC(=O)N1CCC(O)(c2ncc(OC)nc2OC)CC1` : reported Percent Effect = ?
Result string: -17.1

Query string: Using the record for Cc1cnn(CC2CCCCN2CCn2cncn2)c1 (stereo unspecified) , report its Percent Effect.
Result string: -6.72

* * *

Target: AMP-activated protein kinase, AMPK (Homo sapiens) (UniProt P54646+O43741+P54619+Q9UGJ0+Q9Y478+Q13131+Q9UGI9)
Assay: AMP-dependent Kinase enzyme assay. An in vitro enzyme assay that detects ADP turnover that is directly proportional to AMPK activity. This uses naive AMPK that is activated during the assay with MK-8722
Type: functional
Parameters: scale not given: direction of the effect not stated beside the values
Conditions: 30 µM
assay-endpoint: Percent Effect (%)
Your answer should be a plain number; it is taken to be in %.

For orientation, consider the following solved cases.
CCc1nc2n(n1)CC(NCc1cc3ccccc3o1)CC2 (configuration not stated) = -3.35
Cn1ccnc1-c1cn(CCCc2csc(N)n2)nn1 = -21
Cc1cc(C(=O)N2CC[C@@]3(O)CCN(C(=O)N4CCCC4)C[C@H]3C2)no1 = 5.71
CSCCC(=O)N1CCN(CC(O)C(C)(C)C)CC1 (configuration not stated) = -4.07

Query string: Percent Effect lookup needed for `Cc1cncc(C2CCN(Cc3cnc(C)nc3)CC2)n1` , thanks.
Result string: 9.99

Query string: I have this molecule here, `CN(CC1(CO)CCCC1)c1nc2c(c(=O)[nH]1)Cc1ccccc1OC2` , and I need its recorded Percent Effect.
Result string: 6.29

Query string: What Percent Effect value was documented for this molecule, `Cc1ccc(S(C)(=O)=O)cc1NCC(=O)NCCC1=CCCCC1` ?
Result string: 0.0953

Query string: Can you look up the measured Percent Effect of `O=C(COc1cccnc1)NCc1nncn1C1CCCCC1` for me?
Result string: -3.67

Query string: Returns the measured Percent Effect for the input molecule. Input: `CCCS(=O)(=O)N1CCCN(CCCOC)CC1`
Result string: 11.7
